Value source: patent US20160053277A1

experiment: Shuffled variant libraries: 14CO2 capturing assay in 384-well format; details: decarboxylation activity (carbon dioxide released) compared with unmutated backbone protein SEQ ID NO 133 (DDEC0201)
Fold Activity values by entry
// no unit, no text: just the number

**Q:** Field request: Fold Activity | item: 137 (protein, Dicamba decarboxylase variant) MAQGKVALEEHFAIPETLQDSAGFVPGDYWKELQHRLLDIQDTRLKLMDAHGIETMILSLAAPAVQAIPDRRKAIEIARRANDFLAEECAKRPDRFLAFAALPLQDPDAATEELQRCVNTLGFVGALVNGFSQEGDGQTPLYYDLPQYRPFWGEVEKLDVPFYLHPRNPLPQDSRIYDGHPWLLGPTWAFAQETAVHALRLMASGLFDEHPRLNIILGHMGEGLPYMMYRIDHRIAWVHEPPRYPAKRRFMDYFNENFHITTSGNFRTQTLIDAILEIGADRILFSTDWPFENIDHAADWFNATSIAEADRLKIGRTNARRLFKLDGA
**A:** 1.4
